Below are IC50 measurements against TBK1 (Homo sapiens, UniProt Q9UHD2) drawn from the literature.
Sequence (Q9UHD2 whole entry): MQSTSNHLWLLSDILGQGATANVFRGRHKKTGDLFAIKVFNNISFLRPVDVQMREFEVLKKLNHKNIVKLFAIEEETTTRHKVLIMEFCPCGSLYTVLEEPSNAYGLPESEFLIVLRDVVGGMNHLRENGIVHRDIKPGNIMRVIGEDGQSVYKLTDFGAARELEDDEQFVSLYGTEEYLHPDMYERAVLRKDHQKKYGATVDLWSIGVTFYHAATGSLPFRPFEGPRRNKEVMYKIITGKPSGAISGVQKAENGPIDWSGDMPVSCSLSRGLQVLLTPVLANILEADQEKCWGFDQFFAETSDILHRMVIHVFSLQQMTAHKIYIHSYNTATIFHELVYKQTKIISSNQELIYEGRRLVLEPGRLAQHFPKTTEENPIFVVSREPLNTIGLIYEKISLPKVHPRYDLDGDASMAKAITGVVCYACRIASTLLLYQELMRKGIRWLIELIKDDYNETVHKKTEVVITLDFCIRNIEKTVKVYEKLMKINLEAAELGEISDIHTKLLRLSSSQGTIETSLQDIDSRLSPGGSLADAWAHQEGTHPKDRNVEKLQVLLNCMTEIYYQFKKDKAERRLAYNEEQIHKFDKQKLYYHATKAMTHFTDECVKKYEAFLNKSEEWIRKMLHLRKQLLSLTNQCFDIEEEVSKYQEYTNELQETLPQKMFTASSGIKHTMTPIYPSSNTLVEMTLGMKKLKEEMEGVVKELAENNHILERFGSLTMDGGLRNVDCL

COc1cccc(Nc2ccnc(-c3ccc(N)c4c3CNC4=O)c2)c1
> 10000 nM
O=C(NC1CCOC1)N1CC=C(c2c[nH]c3ncc(-c4ccc(CN5CCOCC5)s4)cc23)CC1 (stereo not shown)
16 nM
CC1(COc2ccc(-c3c[nH]c4ncc(-c5cnn(C6COC6)c5)cc34)cc2C#N)COC1
< 300 nM

The observed IC50 for `CN1CCN(c2cccc(-c3cc4nccc(-c5ccc(OC6CCOCC6)c(C#N)c5)c4o3)c2)CC1` when tested with TBK1 (Homo sapiens, UniProt Q9UHD2) stands at < 300 nM
